target: T1, Chicken vinculin Vd1 (residues 1–259) (chicken, UniProt P12003 1-259)
T1 construct: also called vinculin head; vinculin head domain
T1 sequence (looked up): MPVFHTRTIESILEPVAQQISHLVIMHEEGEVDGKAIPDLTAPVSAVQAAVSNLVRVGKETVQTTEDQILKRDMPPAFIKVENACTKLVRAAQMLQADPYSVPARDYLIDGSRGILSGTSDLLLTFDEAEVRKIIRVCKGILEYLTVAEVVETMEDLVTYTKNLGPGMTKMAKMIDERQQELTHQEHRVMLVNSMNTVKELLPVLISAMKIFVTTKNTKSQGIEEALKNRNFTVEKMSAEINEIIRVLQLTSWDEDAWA
assayInfo: fluorescence polarisation; 1 μM fluorescein-coupled peptide constant, increasing concentration of protein; PBS, room temperature, 96-well plate; one-site total binding fit; triplicate
conditionInfo: both partners purified
Where no end group is shown, it is not given here.
measuredProperty: Kd (nM)
Form entry: value (nM) — number only.

binder	Kd / nM
C(fluorescein)VNPRDPPRWSVLAGHSRTVSDSIKKLITSMRDKAP (also called talin VBS36; source: synthetic peptide (GLBiochem)) [mTal1_VBS36 peptide (talin residues 1622–1656) with N-terminal cysteine, fluorescein-coupled]	1030

Proceed to the following item.
**Query** # return recorded Kd for input LLEAARNTTTMLSKTLSKVC(fluorescein) (source: synthetic peptide (GLBiochem)) [TarP_VBS1 peptide (C. caviae residues 850–868) with C-terminal cysteine, fluorescein-coupled]
**Result** 1290
